- assayInfo: Relaxivity measurements at 1.41 T in human plasma
- Assay type: physicochemical
- conditions: 37° C., normalized to Gd
observable: r1 human plasma (L/mmol/s)
One number for each entry, in L/mmol/s.

compound="CCOCCOc1ccc(CC(C(=O)O)N2CCN(CC(=O)[O-])CCN(C(CC)C(=O)[O-])CCN(CC(=O)[O-])CC2)cc1.[Gd+3] (single isomer, unassigned) [Example 7]" numericresult=7.4

Provide reported r1 human plasma for each item, in the same order as listed.
1. CCOCCOCCOc1ccc(CCC[C@H](C(=O)O)N2CCN([C@H](CO)C(=O)[O-])CCN([C@H](CO)C(=O)[O-])CCN([C@H](CO)C(=O)[O-])CC2)cc1.[Gd+3]
2. CCOCCOCCOc1ccc(CCC[C@@H](C(=O)O)N2CCN([C@@H](CO)C(=O)[O-])CCN([C@H](CO)C(=O)[O-])CCN([C@@H](CO)C(=O)[O-])CC2)cc1.[Gd+3]

result:
1. 9.0
2. 8.6

---

Give measured r1 human plasma for each item. Keep answers brief.
- assayInfo: Relaxivity measurements at 1.41 T in human plasma
- Assay type: physicochemical
- conditions: 37° C., normalized to Gd
Answers are plain numbers, in L/mmol/s.

molecule="CCOCCOCCOc1ccc(CCC[C@@H](C(=O)O)N2CCN([C@@H](CO)C(=O)[O-])CCN([C@@H](CO)C(=O)[O-])CCN([C@@H](CO)C(=O)[O-])CC2)cc1.[Gd+3] [Example 15]" observable="r1 human plasma" numericresult=8.7
molecule="CCOCCOCCOCCOc1ccc(C[C@@H](C(=O)O)N2CCN(CC(=O)[O-])CCN(CC(=O)[O-])CCN(CC(=O)[O-])CC2)c(OCCOCCOCCOCC)c1.[Gd+3] [Example 40]" observable="r1 human plasma" numericresult=7.3
molecule="CCOCCOCCOc1ccc(CC(C(=O)[O-])N2CCN(CC(=O)[O-])CCN(C(CC)C(=O)O)CCN(CC(=O)[O-])CC2)cc1.[Gd+3] (stereo not drawn) [Example 43]" observable="r1 human plasma" numericresult=6.9

List r1 human plasma for every entry below, keeping the order given.
1. CCOc1ccc(CCOCC(C(=O)O)N2CCN(CC(=O)[O-])CCN(CC(=O)[O-])CCN(CC(=O)[O-])CC2)cc1.[Gd+3] (stereo not drawn) [Example 1]
2. CCCC(C(=O)[O-])N1CCN(CC(=O)[O-])CCN(C(Cc2ccc(OCC)cc2)C(=O)O)CCN(CC(=O)[O-])CC1.[Gd+3] (stereo not drawn) [Example 30]
3. CCOCCOCCOc1ccc(CC(C(=O)O)N2CCN(C(CCO)C(=O)[O-])CCN(C(CCO)C(=O)[O-])CCN(C(CCO)C(=O)[O-])CC2)cc1.[Gd+3] (stereo not drawn) [Example 37]

result:
[6.5, 7.6, 8.4]

---

- assayInfo: Water solubility in aqueous buffer
- conditions: aqueous buffer 10 mM Tris-HCl, pH 7.4, 20° C.
observable: Solubility

In the examples that follow, each entry is paired with its recorded Solubility.
molecule=CCOCCOCCOc1ccc(CCC[C@@H](C(=O)O)N2CCN([C@@H](CO)C(=O)[O-])CCN([C@@H](CO)C(=O)[O-])CCN([C@@H](CO)C(=O)[O-])CC2)cc1.[Gd+3] result=">500 mM"
molecule="CCOCCOCCOc1ccc(CCCC(C(=O)O)N2CCN(C(CO)C(=O)[O-])CCN(C(CO)C(=O)[O-])CCN(C(CO)C(=O)[O-])CC2)cc1.[Gd+3] (centres unmarked)" result=">217 mM"
molecule=O=C([O-])CN1CCN(CC(=O)[O-])CCN([C@H](Cc2ccc(OCC(F)(F)F)cc2)C(=O)O)CCN(CC(=O)[O-])CC1.[Gd+3] result=">229 mM"
molecule="CCOCCOCCOc1ccc(CC(C(=O)O)N2CCN(CC(=O)[O-])CCN(CC(=O)[O-])CCN(CC(=O)[O-])CC2)cc1.[Gd+3] (centres unmarked)" result=">757 mM"

Below are 7 molecules. Give each one its Solubility.
1. CCOCCOCCOc1ccc(CCC[C@@H](C(=O)O)N2CCN([C@H](CO)C(=O)[O-])CCN([C@H](CO)C(=O)[O-])CCN([C@H](CO)C(=O)[O-])CC2)cc1.[Gd+3]
2. CCCOc1ccc(CCC(C(=O)O)N2CCN(CC(=O)[O-])CCN(CC(=O)[O-])CCN(CC(=O)[O-])CC2)cc1.[Gd+3] (centres unmarked)
3. CCOCCOCCOc1ccc(C[C@@H](C(=O)O)N2CCN(CC(=O)[O-])CCN(CC(=O)[O-])CCN(CC(=O)[O-])CC2)cc1.[Gd+3]
4. CCOc1ccc(CCCC[C@@H](C(=O)O)N2CCN(CC(=O)[O-])CCN(CC(=O)[O-])CCN(CC(=O)[O-])CC2)cc1.[Gd+3]
5. CCOCCOCCOc1ccc(CCC[C@@H](C(=O)O)N2CCN([C@H](CO)C(=O)[O-])CCN([C@H](CO)C(=O)[O-])CCN([C@@H](CO)C(=O)[O-])CC2)cc1.[Gd+3]
6. CCCCOc1cccc(CCC[C@@H](C(=O)O)N2CCN([C@@H](CO)C(=O)[O-])CCN([C@@H](CO)C(=O)[O-])CCN([C@@H](CO)C(=O)[O-])CC2)c1.[Gd+3]
7. CCCCOc1ccc(CCC[C@@H](C(=O)O)N2CCN(CC(=O)[O-])CCN(CC(=O)[O-])CCN(CC(=O)[O-])CC2)cc1.[Gd+3]

result:
1. >381 mM
2. >261 mM
3. >331 mM
4. >9 mM
5. >18 mM
6. >236 mM
7. >255 mM

---

- systemUnderTest: OATP1B1 (Homo sapiens)
- Sequence (Q9Y6L6 whole entry): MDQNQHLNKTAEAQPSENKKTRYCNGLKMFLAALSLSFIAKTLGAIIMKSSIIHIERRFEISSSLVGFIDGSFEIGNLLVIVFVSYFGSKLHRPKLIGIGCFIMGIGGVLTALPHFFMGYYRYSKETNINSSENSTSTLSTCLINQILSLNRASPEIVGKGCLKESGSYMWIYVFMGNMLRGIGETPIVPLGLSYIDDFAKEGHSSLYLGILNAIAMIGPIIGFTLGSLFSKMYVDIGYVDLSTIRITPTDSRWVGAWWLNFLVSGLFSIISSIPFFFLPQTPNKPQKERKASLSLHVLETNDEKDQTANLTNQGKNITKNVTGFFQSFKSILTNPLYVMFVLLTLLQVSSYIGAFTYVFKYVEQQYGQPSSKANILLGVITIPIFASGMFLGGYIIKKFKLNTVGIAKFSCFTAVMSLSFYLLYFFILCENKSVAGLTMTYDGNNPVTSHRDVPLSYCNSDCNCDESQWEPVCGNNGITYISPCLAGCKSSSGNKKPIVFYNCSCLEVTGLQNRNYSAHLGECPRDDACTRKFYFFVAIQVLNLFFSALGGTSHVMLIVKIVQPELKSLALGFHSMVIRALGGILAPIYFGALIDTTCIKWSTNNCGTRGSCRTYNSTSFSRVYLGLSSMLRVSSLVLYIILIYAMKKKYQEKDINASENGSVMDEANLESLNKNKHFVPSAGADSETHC
- assayInfo: Uptake into stable transfected OATP1B1 HEK 293 cells
- Type: cell-based
- conditions: uptake into OATP1B1-HEK 293 cells
Entries whose Inhibition Rifampicine is below 60 % inhibition take Condition met; entries at or above 60 % inhibition take Condition not met.

Below, 10 compounds whose answers are already recorded.
compound="CCOCCOc1ccc(CC(C(=O)O)N2CCN(CC(=O)[O-])CCN(CC(=O)[O-])CCN(CC(=O)[O-])CC2)cc1.[Gd+3] (stereo not drawn)" discretelabel="Condition not met"
compound=CCOCCOCCOc1ccc(CCC[C@H](C(=O)O)N2CCN([C@H](CO)C(=O)[O-])CCN([C@H](CO)C(=O)[O-])CCN([C@H](CO)C(=O)[O-])CC2)cc1.[Gd+3] discretelabel="Condition not met"
compound="CCOCCOCCOc1ccc(CC(C(=O)O)N2CCN(CC(=O)[O-])CCN(CC(=O)[O-])CCN(CC(=O)[O-])CC2)cn1.[Gd+3] (stereo not drawn)" discretelabel="Condition met"
compound="CCCC(C(=O)[O-])N1CCN(CC(=O)[O-])CCN(C(Cc2ccc(OCC)cc2)C(=O)O)CCN(CC(=O)[O-])CC1.[Gd+3] (stereo not drawn) [Example 29]" discretelabel="Condition not met"
compound="CCOCCOCCOCCOc1ccc(CC(C(=O)O)N2CCN(CC(=O)[O-])CCN(C(CO)C(=O)[O-])CCN(CC(=O)[O-])CC2)cc1.[Gd+3] (stereo not drawn)" discretelabel="Condition not met"
compound="CCOCCOCCOc1cc(CC(C(=O)O)N2CCN(CC(=O)[O-])CCN(CC(=O)[O-])CCN(CC(=O)[O-])CC2)cc(OCCOCCOCC)c1.[Gd+3] (stereo not drawn)" discretelabel="Condition met"
compound="CCOCCOCCOc1ccc(CC(C(=O)O)N2CCN(C(CO)C(=O)[O-])CCN(C(CO)C(=O)[O-])CCN(C(CO)C(=O)[O-])CC2)cc1.[Gd+3] (stereo not drawn)" discretelabel="Condition met"
compound="CCOCCOCCOc1ccc(CC(C(=O)O)N2CCN(CC(=O)[O-])CCN(C(CO)C(=O)[O-])CCN(CC(=O)[O-])CC2)cc1.[Gd+3] (stereo not drawn)" discretelabel="Condition met"
compound=CCOCCOCCOc1ccc(C[C@@H](C(=O)O)N2CCN(CC(=O)[O-])CCN(CC(=O)[O-])CCN(CC(=O)[O-])CC2)cc1.[Gd+3] discretelabel="Condition met"
compound="CCOCCOc1ccc(CC(C(=O)O)N2CCN(CC(=O)[O-])CCN(C(CC)C(=O)[O-])CCN(CC(=O)[O-])CC2)cc1.[Gd+3] (single isomer, unassigned) [Example 8]" discretelabel="Condition not met"

query: Problem: For the compound CCOCCOCCOc1ccc(CCC[C@@H](C(=O)O)N2CCN(C(CO)C(=O)[O-])CCN(C(CO)C(=O)[O-])CCN(C(CO)C(=O)[O-])CC2)cc1.[Gd+3] (mixture of isomers) , is Inhibition Rifampicine under 60 % inhibition?
result: Condition not met

query: Is Inhibition Rifampicine strictly under 60 % inhibition for the entry CCOCCOCCOCCOc1ccc(CC(C(=O)O)N2CCN(CC(=O)[O-])CCN(C(COC)C(=O)[O-])CCN(CC(=O)[O-])CC2)cc1.[Gd+3] (stereo not drawn) ?
result: Condition met

query: State whether 60 % inhibition exceeds Inhibition Rifampicine recorded for CCOCCOCCOc1ccc(CC(C(=O)[O-])N2CCN(CC(=O)[O-])CCN(C(CC)C(=O)O)CCN(CC(=O)[O-])CC2)cc1.[Gd+3] (stereo not drawn) .
result: Condition not met

query: # check: Inhibition Rifampicine < 60 % inhibition for "CCOCCOCCOc1ccc(CCC[C@@H](C(=O)O)N2CCN([C@H](CO)C(=O)[O-])CCN([C@H](CO)C(=O)[O-])CCN([C@@H](CO)C(=O)[O-])CC2)cc1.[Gd+3]"
result: Condition not met

query: Strictly below 60 % inhibition: is that where Inhibition Rifampicine of CCOc1ccc(CC(CN(CCN(CC(=O)[O-])CC(=O)[O-])CC(=O)[O-])N(CC(=O)[O-])CC(=O)[O-])cc1.[Gd+3].[Na+].[Na+] (stereo not drawn) [RC1, gadoxetate disodium, reference compound] sits?
result: Condition not met

query: Does this compound meet the criterion Inhibition Rifampicine < 60 % inhibition? COCC(C(=O)O)N1CCN(CC(=O)[O-])CCN(C(Cc2ccc(OCC(F)(F)C(F)F)cc2)C(=O)[O-])CCN(CC(=O)[O-])CC1.[Gd+3] (stereo not drawn)
result: Condition not met

query: Lab log: compare recorded Inhibition Rifampicine with 60 % inhibition; is it strictly lower for "CCCCOc1ccc(CCC[C@@H](C(=O)O)N2CCN(CC(=O)[O-])CCN(CC(=O)[O-])CCN(CC(=O)[O-])CC2)cc1.[Gd+3]" ?
result: Condition not met
